For each record, write down the corresponding AD50.
target desc: opioid receptor (Mus musculus)
Construct: Five CF-1 male mice (Charles River, Portage, Mich.); from tissue; host or cells: living CF-1 male mice (in vivo test; endogenous receptor)
Sequence (P42866 whole entry): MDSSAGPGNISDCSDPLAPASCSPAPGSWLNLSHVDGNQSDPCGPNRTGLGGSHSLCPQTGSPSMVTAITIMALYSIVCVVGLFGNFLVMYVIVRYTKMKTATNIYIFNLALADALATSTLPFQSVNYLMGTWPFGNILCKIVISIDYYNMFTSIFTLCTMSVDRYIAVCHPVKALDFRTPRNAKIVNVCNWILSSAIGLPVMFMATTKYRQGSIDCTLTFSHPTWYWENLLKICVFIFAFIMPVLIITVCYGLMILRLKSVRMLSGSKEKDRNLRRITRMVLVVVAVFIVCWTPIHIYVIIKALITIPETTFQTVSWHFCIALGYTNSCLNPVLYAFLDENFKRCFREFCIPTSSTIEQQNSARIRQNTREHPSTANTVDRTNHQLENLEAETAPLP
experimental protocol: mouse writhing analgesis test: block of morphine-induced analgesia
Type: in vivo, CF-1 male mice
Design: unit not given here
stated conditions: dose of antagonist that reduced the inhibition of writhing produced by 1.25 mg/kg morphine sulfate to 50%; subcutaneous, 20 min before acetic acid
Counter-ions that a name gives are not always drawn.

Tell us which AD50 value is on record for C[C@H]1CN(CCC(C(=O)NCCC(N)=O)C2CCCCC2)CC[C@@]1(C)c1cccc(O)c1 (relative stereo) [Example 17, monohydrochloride] > 40

Retrieve AD50 measured for CCOC(=O)CNC(=O)CNC(=O)C(Cc1ccccc1)CN1CC[C@@](C)(c2cccc(O)c2)[C@@H](C)C1 (relative stereo) [Example 67, monohydrochloride] and print it. 5.5

Retrieve AD50 measured for CNC(=O)CCCNC(=O)C(Cc1ccccc1)CN1CC[C@@](C)(c2cccc(O)c2)[C@@H](C)C1 (stereo partly drawn) [Example 62, monohydrochloride monohydrate] and print it. 18.3

Fill in reported AD50 for this entry: CNC(=O)CCCNC(=O)C(CCN1CC[C@@](C)(c2cccc(O)c2)[C@@H](C)C1)C1CCCCC1 (relative stereo) [Example 24, monohydrochloride monohydrate] > 40

Give me measured AD50, please, for this compound: C[C@H]1CN(CC(Cc2ccccc2)C(=O)NCC(=O)NCC(=O)NCc2ccccc2)CC[C@@]1(C)c1cccc(O)c1 (relative stereo) 20

Hello, please tell me recorded AD50 for this one: Cc1oc(=O)oc1COC(=O)CNC(=O)C(Cc1ccccc1)CN1CC[C@@](C)(c2cccc(O)c2)[C@@H](C)C1 (relative stereo) 2.7
